- protocol.text: Shuffled variant libraries: 14CO2 capturing assay in 384-well format
- assay.setup: decarboxylation activity (carbon dioxide released) compared with unmutated backbone protein SEQ ID NO 133 (DDEC0201)
readout.label: Fold Activity

Please review the entries below; each comes with its answer.
molecule | result
261 (protein, Dicamba decarboxylase variant) MAQGKVALEEHFAIPETLQDSAGFVPGDYWKELQHRLLDIQDTRLKLMDAHGIETMILSLAAPAVQAIPDRVEAIEIARRANDFLAEECAKRPDRFLAFAALPLQDPDAATEELQRCVNDLGFVGALVNGFSQEGDGQTPLYYDLPQYRPFWGEVEKLDVPFYLHPRNPLPQDSRIYDGHPWLLGPTWAFAQETAVHALRLMASGLFDEHPRLNIILGHMGEGLPYMMYRIDHRIAWVHEPPRYPAKRRFMDYFNENFHITTSGNFRTQTLIDAILEIGADRILFSTDWPFENIDHAADWFNATSIAEADRVKIGRTNARRLFKLDGA | 1.2
145 (protein, Dicamba decarboxylase variant) MAQGKVALEEHFAIPETLQDSAGFVPGDYWKELQHRLLDIQDTRLKLMDAHGIETMILSLAAPAVQAIPDRRKAIEIARRANDFLAEECAKRPDRFLAFAALPLQDPDAATEELQRCVNDLGFVGALVNGFSVEGDGQTPLYYDLPQYRPFWGEVEKLDVPFYLHPRNPLPQDSRIYDGHPWLLGPTWAFAQETAVHALRLMASGLFDEHPRLNIILGHMGEGLPYMMYRIDHRIAWVKLPPRYPAKRRFMDYFNENFHITTSGNFRTQTLIDAILEIGADRILFSTDWPFENIDHATDWFNATSIAEADRVKIGRTNARRLFKLDGA | 1.1
133 (protein, Dicamba decarboxylase variant) MAQGKVALEEHFAIPETLQDSAGFVPGDYWKELQHRLLDIQDTRLKLMDAHGIETMILSLAAPAVQAIPDRRKAIEIARRANDFLAEECAKRPDRFLAFAALPLQDPDAATEELQRCVNDLGFVGALVNGFSQEGDGQTPLYYDLPQYRPFWGEVEKLDVPFYLHPRNPLPQDSRIYDGHPWLLGPTWAFAQETAVHALRLMASGLFDEHPRLNIILGHMGEGLPYMMYRIDHRIAWVKLPPRYPAKRRFMDYFNENFHITTSGNFRTQTLIDAILEIGADRILFSTDWPFENIDHAADWFNATSIAEADRVKIGRTNARRLFKLDGA | 1.0

Request the reported Fold Activity associated with 146 (protein, Dicamba decarboxylase variant) MAQGKVALEEHFAIPETLQDSAGFVPGDYWKELQHRLLDIQDTRLKLMDAHGIETMILSLAAPAVQAIPDRRKAIEIARRANDFLAEECAKRPDRFLAFAALPLQDPDAATEELQRCVNDLGFVGALVNGFSQEGDGQTPLYYDLPQYRPFWGEVEKLDVPFYLHPRNPLPQDSRIYDGHPWLLGPTWAFAQETAVHALRLMASGLFDEHPRLNIILGHMGEGLPYMMYRIDHRIAWVKLPPRYPAKRRFMDYFNENFHITTSGNFRTQTLIDAILEIGADRILFSTDWPFENIDHAADWFNATSIAEADRVKIGRTNARRLFKLDGD
1.2

Sample 259 (protein, Dicamba decarboxylase variant) MAQGKVALEEHFAIPETLQDSAGFVPSEYLKELQHRLLDIQDTRLKLMDAHGIETMILSLAAPAVQAIPDRRKAIEIARRANDFLAEECAKRPDRFLAFAALPMQDPDAATEELQRCVNDLGFVGALVNGFSVEGDGQTPLYYDLPQYRPFWGEVEKLDVPFYLHPRNPLPQDSRIYDGHPWLLGPTWAFAQETAVHALRLMASGLFDEHPRLNIILGHMGEGLPYMMYRIDHRIAWVHEPPRYPAKRRFMDYFNENFHITTSGNFRTQTLIDAILEIGADRILFSTDWPFENIDHATAWFNATSIAEADRVKIGRTNARRLFKLDGD — what was its Fold Activity?
1.8

Record request: Fold Activity value, item 255 (protein, Dicamba decarboxylase variant) MAQGKVALEEHFAIPETLQDSAGFVPGDYWKELQHRLLDIQDTRLRLMDAHGIETMILSLAAVGVQAIPDRRKAIEIARRANDFLAEECAKRPDRFLAFAALPLQDPDAATEELQRCVNDLGFVGALVNGFSQEGDGQTPLYYDLPQYRPFWGEVEKLDVPFYLHPRNPLPQDSRIYDGHPWLLGPTWAFAQETAVHALRLMASGLFDEHPRLNIILGHMGEGLPYMMYRIDHRIAWVHPPPRYPAKRRSMDYFNENFHITTSGNFRTQTLIDAILEIGADRILFSTDWPFENIDHAADWFNATSIAEADRVKIGRTNARRLFKLDGD
1.0
